# experimental.target: G-protein coupled receptor 151 (Homo sapiens)
# assay.info: GPR151 activator potency, dose response, cell-based (AID 1508610)
# reported.conditions: cell-based GPR151 activation reporter
The source made the active and inactive calls. The rule behind the calls is not given here.
value.type: EC50

Asked: What value of EC50 has been reported for the following compound? CCOC(=O)COc1ccc2c(=O)c(Oc3cccc(OC)c3)coc2c1
Given back: > 28 µM (inactive)

Asked: What value of EC50 has been reported for the following compound? O=C(O)CCn1cc(C=C2C(=O)NC(=O)NC2=O)c(-c2ccc(Br)cc2)n1
Given back: > 28 µM (inactive)

Asked: What value of EC50 has been reported for the following compound? O=C(Nc1ncc(C(O)(C(F)(F)F)C(F)(F)F)s1)c1ccccc1Cl
Given back: > 30.5 µM (inactive)

Asked: What value of EC50 has been reported for the following compound? COC(=O)C(NC(=O)c1cccc(Cl)c1)(Nc1ccc(Cl)cn1)C(F)(F)F (stereo unspecified)
Given back: > 28 µM (inactive)

Asked: What value of EC50 has been reported for the following compound? CN1C(=O)C(=Cc2nc3ccccc3c(=O)n2-c2ccc([N+](=O)[O-])cc2)c2cc(Br)ccc21
Given back: > 19.1 µM (inactive)

Asked: What value of EC50 has been reported for the following compound? O=C(Nc1noc2ccccc12)c1c(F)cccc1F
Given back: > 28 µM (inactive)

Asked: What value of EC50 has been reported for the following compound? Cc1cc2nc(-c3cccnc3SCC(=O)NCc3ccco3)[nH]c2cc1C
Given back: > 28 µM (inactive)

Asked: What value of EC50 has been reported for the following compound? O=C(O)c1ccc(-n2cc(-c3cnccn3)cn2)cc1
Given back: > 28 µM (inactive)

Asked: What value of EC50 has been reported for the following compound? O=C(O)c1cccc(COc2ccc(CO)cc2Cl)c1
Given back: > 28 µM (inactive)

Asked: What value of EC50 has been reported for the following compound? CC(C)(C)OC(=O)NNC(=O)/C=C/c1cc(Br)ccc1F
Given back: > 28.1 µM (inactive)

Asked: What value of EC50 has been reported for the following compound? CCc1ccccc1NC(=S)N(CCc1ccc(OC)c(OC)c1)Cc1cccnc1
Given back: > 24.3 µM (inactive)

Reference source for all entries: PubChem BioAssay AID1508610
